We begin with a simple list: items and their reported melting point.

See these solved cases before continuing.
> print(dat)
                                   compound  experimental.result
1  O=C(C=C(c1cccc(NS(=O)(=O)c2ccc(Br)cc2)c1)c1cccc(NS(=O)(=O)c2ccc(Br)cc2)c1)NO [Compound 40]        137 to 141 °C
2  O=C(C=C(c1cccc(NS(=O)(=O)c2cccc3cccnc23)c1)c1cccc(NS(=O)(=O)c2cccc3cccnc23)c1)NO [Compound 46]        152 to 156 °C
3  O=C(C=C(c1cccc(NS(=O)(=O)c2ccc3ccccc3c2)c1)c1cccc(NS(=O)(=O)c2ccc3ccccc3c2)c1)NO [Compound 45]        128 to 131 °C
4  COc1ccc(S(=O)(=O)N(c2cccc(/C(=C\C(=O)NO)c3cccnc3)c2)C(C)C)cc1 [Compound 88]        158 to 160 °C
5  CCCN(c1cccc(/C(=C\C(=O)NO)c2cccnc2)c1)S(=O)(=O)c1ccc(OC)cc1 [Compound 115]        151 to 153 °C

// moving on: another record for melting point
Answer with reported melting point of O=C(NO)C(F)=C(c1cccc(NS(=O)(=O)c2cccc3cccnc23)c1)c1cccc(NS(=O)(=O)c2cccc3cccnc23)c1 [Compound 49]
150 to 153 °C

---

Molecular target: MMP-1 (Homo sapiens, UniProt P03956)
Sequence (P03956 100-469): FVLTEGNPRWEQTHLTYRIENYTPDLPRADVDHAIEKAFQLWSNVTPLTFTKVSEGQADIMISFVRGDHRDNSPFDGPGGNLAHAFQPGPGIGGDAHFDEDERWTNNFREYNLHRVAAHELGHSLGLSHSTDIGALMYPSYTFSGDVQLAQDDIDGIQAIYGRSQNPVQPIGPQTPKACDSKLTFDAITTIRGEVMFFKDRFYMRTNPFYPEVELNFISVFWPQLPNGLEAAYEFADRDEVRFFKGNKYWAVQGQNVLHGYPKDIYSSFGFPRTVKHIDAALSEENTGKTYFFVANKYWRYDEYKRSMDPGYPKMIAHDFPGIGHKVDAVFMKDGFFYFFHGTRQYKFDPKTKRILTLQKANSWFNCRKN
Assay readout: IC50

Examples from the recorded data:
> print(dat)
                                  structure  experimental.result
1  COc1ccc(S(=O)(=O)N(c2cccc(/C(=C\C(=O)NO)c3ccccc3)c2)C(C)C)cc1              > 10 µM
2  COc1ccc(S(=O)(=O)N(C)c2cccc(/C(=C\C(=O)NO)c3cccnc3)c2)cc1              > 10 µM

The record that follows has no IC50 shown yet.
Answer with the recorded IC50 for the molecule listed here: CN(c1cccc(/C(=C\C(=O)NO)c2ccccc2)c1)S(=O)(=O)c1ccc([N+](=O)[O-])cc1
> 10 µM

---

Tested on: secretion of TNF-α, THP-1 cells
Assay: Inhibitory activity against secretion of TNF-α in LPS-stimulated THP-1 cells (ELISA)
Assay type: cell-based
Settings: Homo sapiens, LPS 100 ng/mL, 37° C., 4 hours, ELISA of supernatant
pIC50: −log10 of the molar value.
Assay readout: pIC50

Example cases with answers are listed next.
> print(dat)
                                  structure                     study.target  experimental.result
1  COc1ccc(S(=O)(=O)N(c2cccc(/C(=C\C(=O)NO)c3ccc[n+]([O-])c3)c2)C(C)C)cc1  secretion of TNF-α, THP-1 cells                 5.26
2  COc1ccc(S(=O)(=O)N(C)c2cccc(/C(=C\C(=O)NO)c3cccnc3)c2)cc1  secretion of TNF-α, THP-1 cells                 5.39

1: COc1ccc(S(=O)(=O)N(C)c2cccc(/C(=C\C(=O)NO)c3ccccc3)c2)cc1OC
2: COc1ccc(S(=O)(=O)N(c2cccc(/C(=C\C(=O)NO)c3cccnc3)c2)C(C)C)cc1
Could you kindly indicate whether 1 or 2 has the higher pIC50 value? Refer to your chosen item by its label in the answer.
2
(2: 5.55, 1: 5.19)

---

Reported melting point values follow for various molecules

Guide cases for melting point, answers given:
> print(dat)
                                  structure  experimental.result
1  COc1ccc(NC(=O)Nc2cccc(/C(=C\C(=O)NO)c3ccccc3)c2)cc1        190 to 192 °C
2  COc1ccc(OC)c(S(=O)(=O)N(C)c2cccc(/C(=C\C(=O)NO)c3ccccc3)c2)c1        151 to 153 °C
3  COc1ccc(S(=O)(=O)Nc2cccc(C(=CC(=O)NO)c3cccc(NS(=O)(=O)c4ccc(OC)c(OC)c4)c3)c2)cc1OC        132 to 135 °C

Could you now look at the following molecule, please?
Provide melting point value for the following molecule: COc1ccc(C(=O)Nc2cccc(C(=CC(=O)NO)c3cccc(NC(=O)c4ccc(OC)cc4)c3)c2)cc1
198 to 200 °C

---

List of melting point values.

Known results for compounds:
> print(dat)
                                   compound  experimental.result
1  O=C(/C=C(/c1ccccc1)c1cccc(N(Cc2cccnc2)S(=O)(=O)c2ccc3ccccc3c2)c1)NO [Compound 67]        168 to 170 °C
2  COc1ccc(S(=O)(=O)Nc2ccc(Cl)c(/C(=C\C(=O)NO)c3ccccc3)c2)cc1OC [Compound 37]        127 to 130 °C
3  COc1ccc(S(=O)(=O)N(C)c2cccc(/C(=C\C(=O)NO)c3ccccc3)c2)cc1OC [Compound 75]         98 to 101 °C

Consider the compound O=C(/C=C(/c1ccccc1)c1cc(NS(=O)(=O)c2ccc3ccccc3c2)ccc1Cl)NO [Compound 36] . State its measured melting point.
173 to 175 °C

Return the recorded melting point value; entry: CN(c1cccc(/C(=C\C(=O)NO)c2ccccc2)c1)S(=O)(=O)c1ccc([N+](=O)[O-])cc1 [Compound 68]
153 to 155 °C

Retrieve melting point measured for O=C(/C=C(/c1ccccc1)c1cccc(NS(=O)(=O)N2CCCCC2)c1)NO [Compound 26] and print it.
158 to 159 °C

For the compound O=C(/C=C(/c1ccccc1)c1cccc(N(Cc2ccccc2)S(=O)(=O)c2ccc3ccccc3c2)c1)NO [Compound 65] , give its measured melting point value.
88 to 90 °C

---

Biological target: TACE (crude extracted protein from membrane fraction of THP-1 cells) (Homo sapiens)
Construct: The supernatant was collected, which was provided for use as a TACE crude extract; endogenous in cells; membrane fraction solubilised with 1% Triton X-100
Sequence (P78536 215-824): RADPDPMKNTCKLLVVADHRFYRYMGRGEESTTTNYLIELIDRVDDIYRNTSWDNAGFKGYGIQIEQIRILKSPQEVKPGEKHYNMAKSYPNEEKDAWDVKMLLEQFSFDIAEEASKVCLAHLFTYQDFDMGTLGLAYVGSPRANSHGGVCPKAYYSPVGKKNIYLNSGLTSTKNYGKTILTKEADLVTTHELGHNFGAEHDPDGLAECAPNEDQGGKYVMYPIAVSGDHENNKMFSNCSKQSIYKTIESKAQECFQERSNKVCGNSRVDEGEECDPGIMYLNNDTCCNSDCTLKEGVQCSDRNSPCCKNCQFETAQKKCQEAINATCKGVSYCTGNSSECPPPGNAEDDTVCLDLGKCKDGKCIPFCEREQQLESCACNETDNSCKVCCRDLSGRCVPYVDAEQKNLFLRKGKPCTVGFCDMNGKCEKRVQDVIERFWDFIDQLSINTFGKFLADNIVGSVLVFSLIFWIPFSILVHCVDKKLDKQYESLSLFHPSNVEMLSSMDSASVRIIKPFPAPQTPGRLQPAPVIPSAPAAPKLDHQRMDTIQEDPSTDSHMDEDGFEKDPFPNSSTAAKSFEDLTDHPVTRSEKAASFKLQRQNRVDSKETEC
Assay: In vitro TACE inhibitory activity (fluorogenic peptide substrate)
Conditions: crude TACE 10 μg/mL, substrate 20 μM, room temperature, at least 4 hours
Assay readout: IC50 (nM)

Take a look at these entries with their results.
> print(dat)
                                  structure  experimental.result
1  CN(c1cccc(/C(=C\C(=O)NO)c2ccccc2)c1)S(=O)(=O)c1cccc2cccnc12                   29
2  COc1ccc(S(=O)(=O)N(c2cccc(/C(=C\C(=O)NO)c3ccccc3)c2)C(C)C)cc1                  8.6
3  COc1ccc(S(=O)(=O)N(C)c2cccc(/C(=C\C(=O)NO)c3ccccc3)c2)cc1                  8.6
4  COc1ccc(S(=O)(=O)N(c2cccc(/C(=C\C(=O)NO)c3cccnc3)c2)C(C)C)cc1                  6.4
5  COc1ccc(S(=O)(=O)N(C)c2cccc(/C(=C\C(=O)NO)c3ccc[n+]([O-])c3)c2)cc1                   13
6  COc1ccc(S(=O)(=O)N(C)c2cccc(/C(=C\C(=O)NO)c3ccccc3)c2)cc1OC                   13

I: COc1ccc(S(=O)(=O)N(c2cccc(/C(=C\C(=O)NO)c3ccc[n+]([O-])c3)c2)C(C)C)cc1
II: COc1ccc(S(=O)(=O)N(C)c2cccc(/C(=C\C(=O)NO)c3cccnc3)c2)cc1
III: CN(c1cccc(/C(=C\C(=O)NO)c2ccccc2)c1)S(=O)(=O)c1ccc([N+](=O)[O-])cc1
// smallest IC50 at index 0, largest at the end Submit the labels in the order that the ranking request calls for.
II, I, III

---

Assay readout: melting point

Answered cases to consult:
> print(dat)
                                   compound  experimental.result
1  CN(C)c1cccc2c(S(=O)(=O)Nc3cccc(/C(=C\C(=O)NO)c4ccccc4)c3)cccc12 [Compound 30]        123 to 125 °C
2  COc1ccc(S(=O)(=O)N(c2cccc(/C(=C/C(=O)NO)c3cccnc3)c2)C(C)C)cc1 [Compound 114]        195 to 197 °C
3  COc1ccc(C(=O)Nc2cccc(/C(=C\C(=O)NO)c3ccccc3)c2)cc1 [Compound 53]        134 to 137 °C
4  O=C(/C=C(/c1ccccc1)c1cccc(N(CCc2ccccc2)S(=O)(=O)c2ccc3ccccc3c2)c1)NO [Compound 66]        127 to 129 °C
5  CN(C)c1cccc2c(S(=O)(=O)N(C)c3cccc(/C(=C\C(=O)NO)c4ccccc4)c3)cccc12 [Compound 74]          96 to 99 °C

Tell me melting point reported for O=C(/C=C(/c1ccccc1)c1ccc(NS(=O)(=O)c2ccc([N+](=O)[O-])cc2)cc1)NO [Compound 35]
146 to 148 °C

Let me know recorded melting point for COc1ccc(S(=O)(=O)Nc2ccc(/C(=C\C(=O)NO)c3ccccc3)cc2)cc1 [Compound 54] , thanks.
188 to 191 °C

Give the value of melting point reported for the following: O=C(/C=C(/c1ccccc1)c1cccc(NS(=O)(=O)c2cccc3ccccc23)c1)NO [Compound 27]
160 to 163 °C

Complete the entry with melting point for COc1ccc(NC(=S)Nc2cccc(/C(=C\C(=O)NO)c3ccccc3)c2)cc1 [Compound 58]
176 to 179 °C

Where these numbers come from: patent US20040029928A1
